Data origin, for the record: the supplement of paper PMC12667976

B1: library; numbered along this chain (parent)
chain: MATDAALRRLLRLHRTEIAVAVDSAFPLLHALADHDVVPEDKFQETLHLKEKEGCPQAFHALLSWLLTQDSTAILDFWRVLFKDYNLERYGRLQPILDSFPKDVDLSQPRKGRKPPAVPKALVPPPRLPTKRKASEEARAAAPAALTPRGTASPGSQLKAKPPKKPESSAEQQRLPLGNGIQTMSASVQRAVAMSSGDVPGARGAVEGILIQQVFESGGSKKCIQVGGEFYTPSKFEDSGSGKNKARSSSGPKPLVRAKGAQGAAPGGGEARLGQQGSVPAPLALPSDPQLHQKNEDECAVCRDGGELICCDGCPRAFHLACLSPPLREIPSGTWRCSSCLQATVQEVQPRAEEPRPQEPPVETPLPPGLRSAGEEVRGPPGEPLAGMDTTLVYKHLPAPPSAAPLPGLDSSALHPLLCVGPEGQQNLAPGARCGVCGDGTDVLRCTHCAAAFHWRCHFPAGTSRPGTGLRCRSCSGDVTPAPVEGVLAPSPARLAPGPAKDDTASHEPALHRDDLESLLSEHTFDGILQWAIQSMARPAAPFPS

- Variants of: B1
- assay-remarks: AIRE transcriptional activation functional score (insulin promoter-GFP; nonsense median 0, synonymous median 1) (normalised score); higher = higher AIRE activity (more reporter activation)
- assay-conditions: with insulin promoter-GFP reporter in HEK293
What AIRE transcriptional activation functional score was measured for each of the following?
Answer with a number only.

Ask: Complete the entry with AIRE transcriptional activation functional score for R473D
Result: 0.836

Ask: Hello, please tell me recorded AIRE transcriptional activation functional score for this one: D34V
Result: 0.0819

Ask: Look up AIRE transcriptional activation functional score of W65L and report it.
Result: 0.2

Ask: For G431S , write its AIRE transcriptional activation functional score.
Result: 0.927

Ask: Please report the measured AIRE transcriptional activation functional score for A432H
Result: 0.437
